- Test system: Plasmodium berghei
- assayOverview: Screen against P. berghei liver stage (PbLuc), transformed with Luciferase, at 10uM
- Type: functional, HepG2
- cond: tested at 10 uM
The whole screen tested about 69,000 compounds, of which about 8,600 (12%) showed an effect of 50% or more. Many of the other results were omitted from the sample, so strong results are more common in it than they were.
Parameter: INHIBITION. Scope: all listed entries.
readoutLabel: INHIBITION (%)

• c1csc(CN2CCCn3cnc(COCC4CC4)c3C2)c1 = -1.55
• CCS(=O)(=O)CC(=O)NC(c1ccc(F)cc1)C1CCCC1 (stereo not given) = 42.6
• Cn1nnnc1SCc1cc2c(cc1Cl)OCO2 = 25.2
• CN(C)C(=O)NCc1ncn2c1CN(Cc1cccs1)CCC2 = 52.3
• CC1(C)CC(CC(=O)N2CC(C)(C)[C@@](C)(O)C2)CC(C)(C)N1 = 70.2
• Cn1c(C(=O)N2CCC(C(N)=O)C2)c(Cl)c2ccccc21 (stereo not given) = -20.5
• CN(C)C(=O)NCc1ncn2c1CN(Cc1ccco1)CCC2 = 28.2
• CCN(CC)C(=O)CN1CCc2nc(C3CCNCC3)nc(NC)c2C1 = 23.9
• CC(Cn1cccn1)NC(=O)NCc1ccoc1 (stereo not given) = 15.6
• CC1(C)CN(C(=O)CC2CCC2)C[C@]1(C)O = 47.4
• Cn1nnnc1SCCNC1CCN(c2ccc3c(c2)OCO3)CC1 = 65
• CC(C)CCS(=O)(=O)N1CCCC(c2nncn2C(C)C)C1 (stereo not given) = 44.9
• CC(C)n1cnnc1C1CCCN(S(=O)(=O)CCCF)C1 (stereo not given) = 39.7
• CCc1cc(N2CCC(NCCc3ccc(C)o3)CC2)nc(C)n1 = 21.3
• CS(=O)(=O)NCc1ncn2c1CN(Cc1cccs1)CCC2 = -17.9
• O=C(CCN1CCCCC1c1cc2ccccc2[nH]1)N1CCOCC1 (stereo not given) = 55.8
• CCc1ccc(C(=O)N2CC[C@](C)(O)C(C)(C)C2)[nH]1 = -10.6
• CC1(C)CN(C(=O)CC2CCS(=O)(=O)CC2)C[C@]1(C)O = 34.4
• OCCOCc1ncn2c1CN(Cc1cccs1)CCC2 = 21.8
• COc1cccc(-c2cnc(C3CCNCC3)cn2)c1 = -28.6
• COc1ccc(C2CCCCCN2CCCNS(C)(=O)=O)cc1 (stereo not given) = 0.914
• N#Cc1cn(C2CC2)c(=O)n(CC(O)c2ccc(F)cc2)c1=O (stereo not given) = 35.85
• CC(C)n1cnnc1C1CCCN(S(=O)(=O)CC2CCCC2)C1 (stereo not given) = 76.5
• c1coc(COCc2ncn3c2CN(Cc2cccs2)CCC3)c1 = 56.7
• CCO[C@H]1CO[C@@]2(CCCN(S(=O)(=O)c3cccnc3)C2)C1 = 34.6

###

- System: Plasmodium berghei
- assayOverview: Screen against P. berghei liver stage (PbLuc), transformed with Luciferase, at 10uM
- Format: functional, HepG2
- cond: tested at 10 uM
Hit rate of the full screen: of about 69,000 compounds, about 8,600 (12%) showed an effect of 50% or more. The list comes from a sample in which strong results are over-represented; it also holds close analogues and randomly drawn compounds.
Mark no (0) for INHIBITION values under 30%, and yes (1) for everything at or above.

* Cc1ccc(-c2cnc3n2CCN(C)C32CCN(CC3CC3)CC2)cc1 | no (0)
* Cc1cc2nc(C(C)C)cc(NCC(c3ccccn3)N(C)C)n2n1 (stereo unspecified) | no (0)
* Fc1ccc(-c2noc3c2CN(CC2CC2)CC3)cc1F | yes (1)
* c1ccc(-c2noc3c2CN(CC2CC2)CC3)cc1 | no (0)
* O=C(c1ccncc1)N1CCC2(CCCN(c3ncc(F)cn3)C2)C1 (stereo unspecified) | yes (1)
* O=C(c1ccoc1)N1CCC2(CCCN(c3ncc(F)cn3)C2)C1 (stereo unspecified) | yes (1)

meta.source: ChEMBL document CHEMBL4513216
